Source of measurements: PubChem BioAssay AID624042

target: G protein-activated inward rectifier potassium channel 2 (Homo sapiens) + G protein-activated inward rectifier potassium channel 1 (Homo sapiens) (UniProt P48051+P48549); test: GIRK1/2 activation independent of G-protein coupling, dose response, mechanism study for GIRK activator project, cell-based, HEK-293 hGIRK1/2, pertussis toxin-treated, thallium flux, FluoZin-2 (AID 624042); settings: HEK-293 hGIRK1/2 PTX-treated
Sequence (P48051 whole entry, looked up): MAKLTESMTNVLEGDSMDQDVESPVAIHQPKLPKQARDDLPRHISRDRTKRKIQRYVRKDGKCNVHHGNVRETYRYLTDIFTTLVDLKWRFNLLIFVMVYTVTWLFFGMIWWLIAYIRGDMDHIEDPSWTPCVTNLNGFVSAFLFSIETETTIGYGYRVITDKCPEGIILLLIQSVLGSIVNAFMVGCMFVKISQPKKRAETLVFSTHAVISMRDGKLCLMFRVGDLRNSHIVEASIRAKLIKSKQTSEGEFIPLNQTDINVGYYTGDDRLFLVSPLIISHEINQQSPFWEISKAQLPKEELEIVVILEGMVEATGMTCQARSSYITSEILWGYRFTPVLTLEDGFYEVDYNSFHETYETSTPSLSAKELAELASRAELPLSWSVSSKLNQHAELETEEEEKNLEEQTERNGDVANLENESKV
Sequence (P48549 whole entry, looked up): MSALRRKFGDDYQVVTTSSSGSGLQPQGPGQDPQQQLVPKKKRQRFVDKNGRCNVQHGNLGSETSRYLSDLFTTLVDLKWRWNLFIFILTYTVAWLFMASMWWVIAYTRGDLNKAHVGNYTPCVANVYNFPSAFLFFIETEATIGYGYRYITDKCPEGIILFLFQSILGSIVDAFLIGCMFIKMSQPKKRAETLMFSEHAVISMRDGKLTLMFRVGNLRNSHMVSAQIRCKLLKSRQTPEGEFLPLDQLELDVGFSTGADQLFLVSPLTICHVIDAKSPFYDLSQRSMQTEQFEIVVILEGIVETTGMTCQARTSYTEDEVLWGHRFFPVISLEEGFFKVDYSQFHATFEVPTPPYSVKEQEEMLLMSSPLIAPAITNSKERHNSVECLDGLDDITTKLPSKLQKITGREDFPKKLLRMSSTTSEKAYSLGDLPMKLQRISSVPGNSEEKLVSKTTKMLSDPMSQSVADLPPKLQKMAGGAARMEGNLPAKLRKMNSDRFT
Each item that follows carries a reported EC50.

Consider the following illustrative entries.
1) CCOc1ccccc1Nc1nnc(Cc2ccccc2Cl)c(=O)[nH]1 ... 1860 nM
2) Cc1cc(NC(=O)Nc2ccccc2)n(-c2ccccc2)n1 ... 3620 nM
3) Cc1ccc(NC(=O)Cc2ccccc2Cl)cc1S(=O)(=O)N(C)C ... 2180 nM

Ask: Specify measured EC50 for Cc1ccc(-c2nnn(CC(=O)NC3CC4CCC3C4)n2)cc1 (centres undefined) .
Reply: 4220 nM
